Reported pEC50 by item:
# TARGET_SYSTEM: CFTR ΔF508 mutant (Homo sapiens, UniProt P13569, DEL508-508)
# Construct: expressed in transfected cells; host or cells: CFBE41o- (adenoviral transduction)
# Sequence (P13569 with tags, fused parts or gaps DEL508-508): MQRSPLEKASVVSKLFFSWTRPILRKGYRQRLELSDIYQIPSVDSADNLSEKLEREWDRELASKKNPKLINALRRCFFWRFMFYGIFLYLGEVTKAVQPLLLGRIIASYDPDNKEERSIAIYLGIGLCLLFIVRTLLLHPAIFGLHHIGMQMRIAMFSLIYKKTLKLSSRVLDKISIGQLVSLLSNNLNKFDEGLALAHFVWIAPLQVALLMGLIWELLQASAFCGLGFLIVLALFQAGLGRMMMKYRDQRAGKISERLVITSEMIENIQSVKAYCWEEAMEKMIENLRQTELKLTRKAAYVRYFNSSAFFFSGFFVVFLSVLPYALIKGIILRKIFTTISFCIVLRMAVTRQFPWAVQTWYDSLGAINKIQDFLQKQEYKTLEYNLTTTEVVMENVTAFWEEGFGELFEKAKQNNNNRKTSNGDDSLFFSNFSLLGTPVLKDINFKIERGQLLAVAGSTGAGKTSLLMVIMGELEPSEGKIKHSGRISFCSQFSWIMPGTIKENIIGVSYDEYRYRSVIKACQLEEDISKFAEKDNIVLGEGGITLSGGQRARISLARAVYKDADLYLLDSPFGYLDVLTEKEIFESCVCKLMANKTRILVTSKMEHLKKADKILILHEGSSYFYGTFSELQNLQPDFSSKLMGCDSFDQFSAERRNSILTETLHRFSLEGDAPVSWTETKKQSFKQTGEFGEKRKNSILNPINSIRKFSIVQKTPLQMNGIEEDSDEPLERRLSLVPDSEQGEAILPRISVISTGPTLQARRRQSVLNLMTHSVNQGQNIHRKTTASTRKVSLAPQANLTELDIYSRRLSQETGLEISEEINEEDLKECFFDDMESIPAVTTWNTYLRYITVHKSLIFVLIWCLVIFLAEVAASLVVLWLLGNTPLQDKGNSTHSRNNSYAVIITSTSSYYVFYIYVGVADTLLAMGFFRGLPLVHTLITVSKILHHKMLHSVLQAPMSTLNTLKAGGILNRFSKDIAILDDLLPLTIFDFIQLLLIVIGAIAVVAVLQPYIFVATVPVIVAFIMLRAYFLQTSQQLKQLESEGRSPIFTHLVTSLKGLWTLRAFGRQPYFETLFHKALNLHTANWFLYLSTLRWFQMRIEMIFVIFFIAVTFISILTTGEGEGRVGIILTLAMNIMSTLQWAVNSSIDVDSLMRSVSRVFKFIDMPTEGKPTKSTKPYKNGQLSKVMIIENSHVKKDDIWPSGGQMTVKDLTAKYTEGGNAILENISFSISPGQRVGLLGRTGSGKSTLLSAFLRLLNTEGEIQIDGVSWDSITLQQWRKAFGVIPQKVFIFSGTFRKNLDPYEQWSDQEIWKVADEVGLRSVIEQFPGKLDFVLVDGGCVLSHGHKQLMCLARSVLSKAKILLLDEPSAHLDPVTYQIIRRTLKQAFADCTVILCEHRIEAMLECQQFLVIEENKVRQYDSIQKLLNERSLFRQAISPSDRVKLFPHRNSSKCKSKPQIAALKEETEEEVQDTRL
# ASSAY_TEXT: YFP-halide influx assay for the CFTR-ΔF508 mutation (384 well, FDSS/μCell)
# Format: cell-based
# CONDITION_DESCRIPTION: CFBE41o- cells, CFTR-ΔF508, 1×D-PBS, fluorescence after 36 seconds
Scale note: pEC50 = -log10(concentration in M).

* Cc1cc(C#N)cc(S(=O)(=O)c2cc(C(N)=O)c(NC(=O)C(C)(C)O)s2)c1 [Compound 399] | 7.25
* NC(=O)c1cc(S(=O)(=O)c2ccccc2OC(F)(F)F)sc1NC(=O)CO [Compound 319] | 8.09
* CC(C)(C)C(=O)Nc1sc(S(=O)(=O)c2cccc(F)c2)cc1C(N)=O [Compound 122] | 7.16

Note to self: pEC50 recorded for Cc1c(S(=O)(=O)c2ccc(OC(F)(F)F)cc2)sc(NC(=O)C(C)(C)O)c1C(N)=O [Compound 437] was 8.20

Note to self: pEC50 recorded for CC(C)(O)C(=O)Nc1sc(S(=O)(=O)c2cc(F)c(F)cc2Cl)cc1C(N)=O [Compound 336] was 7.91

Note to self: pEC50 recorded for CN(c1ccc(F)cc1)S(=O)(=O)c1cc(C(N)=O)c(NC(=O)c2cc[nH]n2)s1 [Compound 173] was 7.80

Note to self: pEC50 recorded for COc1ccc(OC(F)(F)F)c(S(=O)(=O)c2cc(C(N)=O)c(NC(=O)C(C)(C)O)s2)c1 [Compound 373] was 7.88

Note to self: pEC50 recorded for CC(C)N(c1ccc(F)cc1)S(=O)(=O)c1cc(C(N)=O)c(NC(=O)C2(O)CC2)s1 [Compound 237] was 6.97

Data origin, for the record: patent US9382254B2
